Give relative viability for every item shown.
System: SW 1573
Assay: relative viability (nuclei count vs DMSO), 5 days (fraction); higher = more cells survive
Details: first compound 0.01 µM
Answers are plain numbers.

Reference set (2 entries):
[
  {
    "Compound": "CC(C)Oc1cc(Nc2nc(N[C@@H](C)c3ccc(F)cn3)ncc2Cl)n[nH]1 [AZ23] + CC(C)C[C@H](NC(=O)[C@H](Cc1ccccc1)NC(=O)c1cnccn1)B(O)O [Bortezomib] (partner 0.002 µM)",
    "relative viability": 1.24
  },
  {
    "Compound": "CC(C)Oc1cc(Nc2nc(N[C@@H](C)c3ccc(F)cn3)ncc2Cl)n[nH]1 [AZ23] + Cc1cc(Nc2cc(N3CCN(C)CC3)nc(Sc3ccc(NC(=O)C4CC4)cc3)n2)n[nH]1 [Tozasertib] (partner 0.1 µM)",
    "relative viability": 0.168
  }
]

Hey, can you go through the list below and give me relative viability for every item?
1. CC(C)Oc1cc(Nc2nc(N[C@@H](C)c3ccc(F)cn3)ncc2Cl)n[nH]1 [AZ23] + CC(=O)Nc1cccc(-n2c(=O)n(C3CC3)c(=O)c3c(Nc4ccc(I)cc4F)n(C)c(=O)c(C)c32)c1 [Trametinib] (partner 0.02 µM)
2. CC(C)Oc1cc(Nc2nc(N[C@@H](C)c3ccc(F)cn3)ncc2Cl)n[nH]1 [AZ23] + O=C(c1cc(Cc2n[nH]c(=O)c3ccccc23)ccc1F)N1CCN(C(=O)C2CC2)CC1 [Olaparib] (partner 8 µM)
3. CC(C)Oc1cc(Nc2nc(N[C@@H](C)c3ccc(F)cn3)ncc2Cl)n[nH]1 [AZ23] + Nc1nc2[nH]cc(CCc3ccc(C(=O)N[C@@H](CCC(=O)O)C(=O)O)cc3)c2c(=O)[nH]1 [Pemetrexed] (partner 0.2 µM)

Solution:
1: 0.693; 2: 0.649; 3: 0.958

---

Tested on: NCI-H838
Assay: relative viability (nuclei count vs DMSO), 5 days (fraction); higher = more cells survive
Details: first compound 0.8 µM
Provide the reported relative viability of each item.
Numbers only.

Example molecules with recorded relative viability:
[
  {
    "Molecule": "CCCCCCCCCCCC1=C(O)C(=O)C=C(O)C1=O [Embelin] + COc1cccc2cc(-c3nc([C@H]4CC[C@H](C(=O)O)CC4)n4ncnc(N)c34)[nH]c12 [OSI-027] (partner 0.5 µM)",
    "Recorded Result": 0.463
  },
  {
    "Molecule": "CCCCCCCCCCCC1=C(O)C(=O)C=C(O)C1=O [Embelin] + CC1(C)CCC(c2ccc(Cl)cc2)=C(CN2CCN(c3ccc(C(=O)NS(=O)(=O)c4ccc(N[C@H](CCN5CCOCC5)CSc5ccccc5)c(S(=O)(=O)C(F)(F)F)c4)cc3)CC2)C1 [Navitoclax] (partner 0.5 µM)",
    "Recorded Result": 1.25
  },
  {
    "Molecule": "CCCCCCCCCCCC1=C(O)C(=O)C=C(O)C1=O [Embelin] + CC(=O)Nc1cccc(-n2c(=O)n(C3CC3)c(=O)c3c(Nc4ccc(I)cc4F)n(C)c(=O)c(C)c32)c1 [Trametinib] (partner 0.02 µM)",
    "Recorded Result": 0.705
  }
]

Go through the items and report each one's relative viability.
1. CCCCCCCCCCCC1=C(O)C(=O)C=C(O)C1=O [Embelin] + C[C@]1(O)C[C@@H](c2nc(-c3ccc4ccc(-c5ccccc5)nc4c3)c3c(N)nccn32)C1 [Linsitinib] (partner 1 µM)
2. CCCCCCCCCCCC1=C(O)C(=O)C=C(O)C1=O [Embelin] + CS(=O)(=O)N1CCN(Cc2cc3nc(-c4cccc5[nH]ncc45)nc(N4CCOCC4)c3s2)CC1 [Pictilisib] (partner 1 µM)

Solution:
1. 1.13
2. 0.573

The following molecules each have a reported value; give each one's relative viability.
1. CCCCCCCCCCCC1=C(O)C(=O)C=C(O)C1=O [Embelin] + C[C@@H](Oc1cc(-c2cnn(C3CCNCC3)c2)cnc1N)c1c(Cl)ccc(F)c1Cl [Crizotinib] (partner 1 µM)
2. CCCCCCCCCCCC1=C(O)C(=O)C=C(O)C1=O [Embelin] + Cc1cc(Nc2cc(N3CCN(C)CC3)nc(Sc3ccc(NC(=O)C4CC4)cc3)n2)n[nH]1 [Tozasertib] (partner 0.1 µM)

Solution:
0.995
0.272

---

Answer each item with its documented relative viability.
Test system: SW 900
Test: relative viability (nuclei count vs DMSO), 5 days (fraction); higher = more cells survive
Conditions: first compound 4 µM
Give bare numbers.

[
  {
    "Compound": "C[C@@H]1CN(CC(=O)Nc2ccc3c(c2)Cc2cccc(-c4cc(=O)cc(N5CCOCC5)o4)c2S3)C[C@H](C)O1 + CC(=O)c1c(C)c2cnc(Nc3ccc(N4CCNCC4)cn3)nc2n(C2CCCC2)c1=O [Palbociclib] (partner 0.5 µM)",
    "Recorded Result": 0.412
  },
  {
    "Compound": "COc1cc(N2CCC(C(N)=O)CC2)ccc1Nc1nc(N)c(Cl)c(Nc2ccccc2S(=O)(=O)C(C)C)n1 [HG-5-88-01] + Cc1cc(Nc2cc(N3CCN(C)CC3)nc(Sc3ccc(NC(=O)C4CC4)cc3)n2)n[nH]1 [Tozasertib] (partner 0.1 µM)",
    "Recorded Result": 0.268
  },
  {
    "Compound": "C[C@@H]1CN(CC(=O)Nc2ccc3c(c2)Cc2cccc(-c4cc(=O)cc(N5CCOCC5)o4)c2S3)C[C@H](C)O1 + Cc1nc(Nc2ncc(C(=O)Nc3c(C)cccc3Cl)s2)cc(N2CCN(CCO)CC2)n1 [Dasatinib] (partner 0.075 µM)",
    "Recorded Result": 0.375
  }
]

Now consider the entry below.
relative viability of Clc1ccc(Nc2nnc(Cc3ccncc3)c3ccccc23)cc1 [Vatalanib] + NC(=O)Nc1cc(-c2cccc(F)c2)sc1C(=O)N[C@H]1CCCNC1 [AZD7762] (partner 0.2 µM) , assay on SW 900, is 0.6

---

Task for the reader: assign each of the following compounds its reported relative viability.
Test system: NCI-H520
Assay: relative viability (nuclei count vs DMSO), 5 days (fraction); higher = more cells survive
Settings: first compound 0.4 µM

[
  {
    "Compound": "C[C@@H]1CN(CC(=O)Nc2ccc3c(c2)Cc2cccc(-c4cc(=O)cc(N5CCOCC5)o4)c2S3)C[C@H](C)O1 + Cc1cc(Nc2cc(N3CCN(C)CC3)nc(Sc3ccc(NC(=O)C4CC4)cc3)n2)n[nH]1 [Tozasertib] (partner 0.1 µM)",
    "Outcome Measure": "relative viability",
    "Recorded Result": 0.356
  },
  {
    "Compound": "C[C@@H]1CN(CC(=O)Nc2ccc3c(c2)Cc2cccc(-c4cc(=O)cc(N5CCOCC5)o4)c2S3)C[C@H](C)O1 + CC(=O)c1c(C)c2cnc(Nc3ccc(N4CCNCC4)cn3)nc2n(C2CCCC2)c1=O [Palbociclib] (partner 0.5 µM)",
    "Outcome Measure": "relative viability",
    "Recorded Result": 0.172
  },
  {
    "Compound": "C[C@@H]1CN(CC(=O)Nc2ccc3c(c2)Cc2cccc(-c4cc(=O)cc(N5CCOCC5)o4)c2S3)C[C@H](C)O1 + CCNC(=O)c1noc(-c2cc(C(C)C)c(O)cc2O)c1-c1ccc(CN2CCOCC2)cc1 [Luminespib] (partner 0.01 µM)",
    "Outcome Measure": "relative viability",
    "Recorded Result": 0.224
  },
  {
    "Compound": "Clc1ccc(Nc2nnc(Cc3ccncc3)c3ccccc23)cc1 [Vatalanib] + N=C(N)NC(=N)NCCc1ccccc1 [Phenformin] (partner 250 µM)",
    "Outcome Measure": "relative viability",
    "Recorded Result": 0.83
  },
  {
    "Compound": "Clc1ccc(Nc2nnc(Cc3ccncc3)c3ccccc23)cc1 [Vatalanib] + Cc1nc(Nc2ncc(C(=O)Nc3c(C)cccc3Cl)s2)cc(N2CCN(CCO)CC2)n1 [Dasatinib] (partner 0.075 µM)",
    "Outcome Measure": "relative viability",
    "Recorded Result": 0.218
  }
]

Please look at the items below and tell me relative viability for each one, in order.
1. C[C@@H]1CN(CC(=O)Nc2ccc3c(c2)Cc2cccc(-c4cc(=O)cc(N5CCOCC5)o4)c2S3)C[C@H](C)O1 + COc1cccc2cc(-c3nc([C@H]4CC[C@H](C(=O)O)CC4)n4ncnc(N)c34)[nH]c12 [OSI-027] (partner 0.5 µM)
2. C[C@@H]1CN(CC(=O)Nc2ccc3c(c2)Cc2cccc(-c4cc(=O)cc(N5CCOCC5)o4)c2S3)C[C@H](C)O1 + C[C@@H](Oc1cc(-c2cnn(C3CCNCC3)c2)cnc1N)c1c(Cl)ccc(F)c1Cl [Crizotinib] (partner 1 µM)
3. COc1cc(N2CCC(C(N)=O)CC2)ccc1Nc1nc(N)c(Cl)c(Nc2ccccc2S(=O)(=O)C(C)C)n1 [HG-5-88-01] + CC(=O)Nc1cccc(-n2c(=O)n(C3CC3)c(=O)c3c(Nc4ccc(I)cc4F)n(C)c(=O)c(C)c32)c1 [Trametinib] (partner 0.02 µM)

Solution:
[0.221, 0.497, 0.617]
